# SYSTEM NAME: UniProtKB P30411
# Sequence (P30411 whole entry): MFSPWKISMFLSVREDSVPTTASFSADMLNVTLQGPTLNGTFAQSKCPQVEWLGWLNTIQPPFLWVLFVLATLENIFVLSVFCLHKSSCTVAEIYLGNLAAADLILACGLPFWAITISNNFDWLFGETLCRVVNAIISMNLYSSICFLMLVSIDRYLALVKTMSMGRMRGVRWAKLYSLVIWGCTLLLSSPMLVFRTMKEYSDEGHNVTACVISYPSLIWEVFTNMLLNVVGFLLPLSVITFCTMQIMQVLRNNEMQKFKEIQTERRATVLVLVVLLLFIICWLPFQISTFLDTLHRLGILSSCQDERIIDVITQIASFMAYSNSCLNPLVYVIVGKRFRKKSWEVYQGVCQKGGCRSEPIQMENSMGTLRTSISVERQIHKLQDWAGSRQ
# PROTOCOL NOTES: Activity at human B2 receptor transfected in CHO cells assessed as ability to antagonize BK-induced inositol-phosphate accumulation
# Type: functional, cell-based
# CONDITION CONTEXT: read-out: pA2 (converted)
MEASURED PARAMETER: Kb (nM)

The following compounds have reported results that may help.
1) Cc1cc(C)c2cccc(OCc3c(Cl)ccc(S(=O)(=O)NC(C)(C)C(=O)N4CCN(C(=O)[C@@H](N)CCCN(C)C)CC4)c3Cl)c2n1	0.794
2) Cc1ccc2cccc(OCc3c(Cl)ccc(S(=O)(=O)NC(C)(C)C(=O)N4CCN(CCCCCCN=C(N)N)CC4)c3Cl)c2n1	7.94
3) Cc1ccc2cccc(OCc3c(Cl)ccc(S(=O)(=O)NC(C)(C)C(=O)N4CCN(C(=O)C[C@@H](N)CCCCN(C)C)CC4)c3Cl)c2n1	39.8
4) Cc1ccc2cccc(OCc3c(Cl)ccc(S(=O)(=O)NC(C)(C)C(=O)N4CCN(C(=O)C[C@@H](N)CCCCN=C(N)N)CC4)c3Cl)c2n1	7.94

(a) Cc1ccc2cccc(OCc3c(Cl)ccc(S(=O)(=O)NC(C)(C)C(=O)N4CCN(C(=O)[C@@H](N)CCCCN(C)C)CC4)c3Cl)c2n1
(b) Cc1cc(C)c2cccc(OCc3c(Cl)ccc(S(=O)(=O)NC(C)(C)C(=O)N4CCN(C(=O)C[C@@H](N)CCCCN(C)C)CC4)c3Cl)c2n1
(c) Cc1ccc2cccc(OCc3c(Cl)ccc(S(=O)(=O)NC(C)(C)C(=O)N4CCN(CCN=C(N)N)CC4)c3Cl)c2n1
Rank the 3 compounds: largest Kb first, smallest last. Form field (ranking): labels in requested order.
c, a, b
